A set of compounds tested on Pim 2 (Homo sapiens), with measured IC50:
Number first, unit second.

Below are worked cases with known answers.
{"chemical_structure": "C[C@@H]1C[C@H](N)C[C@H](c2ccncc2NC(=O)c2ccc(F)c(-c3c(F)cc(O[C@@H]4CCCOC4)cc3F)n2)C1", "IC50": "1.84 nM"}
{"chemical_structure": "Cc1cc(F)c(-c2nc(C(=O)Nc3cnccc3N3C[C@@H](N)[C@H](O)[C@@H](C)C3)ccc2F)c(F)c1", "IC50": "0.94 nM"}

Task item: Could you share what IC50 was measured for C[C@@H]1C[C@H](N)C[C@H](c2ccncc2NC(=O)c2ccc(F)c(-c3c(F)cc(C4(F)CCOCC4)cc3F)n2)C1 , tested on Pim 2 (Homo sapiens)?
Reply: 1.33 nM

Origin of values: patent US20120225062A1
